assay-method-text: P-glycoprotein substrates identified in KB-3-1 adenocarcinoma cell line, qHTS therapeutic library screen (AID 1346986); note: nearly all actives have a fitted effect of over 60% in size
assay-conditions: KB-3-1 parental cells viability, CellTiter-Glo, 72 h; series mostly up to 44.5 µM
Protocol: The ATP-binding cassette transporters P-glycoprotein (P-gp) is known to limit brain penetration of many chemotherapy drugs. […] All cell lines were plated into 1536-well plates at 500 cells/well in 5 uL media. […] CellTiter-Glo reagent (Promega) was dispensed into the wells, incubated for 5 min and luminescence was read on a ViewLux instrument (Perkin-Elmer). […]
Inconclusive results are not listed. Active and inactive are the calls of the source. Calls come from the whole dose curve; as a rule, active = well fitted inhibition curve with a large enough effect; inconclusive = small, poorly fitted or top-dose-only effect; inactive = no such curve, though single readings can be large or run the other way.
readout-type: outcome

Previously resolved entries follow.
compound="CCC(C)C(=O)O[C@H]1C[C@](C)(O)[C@]23OC(C)(C)[C@H](C[C@H](OC(=O)c4ccccc4)[C@]2(COC(C)=O)[C@H]1OC(=O)C(C)CC)[C@H]3OC(C)=O (stereo not given in full)" experimental_result=inactive
compound="CC1OC(OC2CCC3(C)C(CCC4(C)C3C=CC35OCC6(CCC(C)(C)CC63)CCC45C)C2(C)CO)C(OC2OC(CO)C(O)C(O)C2O)C(O)C1OC1OC(CO)C(O)C(O)C1O (stereo not given)" experimental_result="inactive [at 9.29 µM]"
compound="C=C1CC[C@H]2[C@@](C)(CCC(OC3OC(CO)C(O)C(O)C3O)[C@@]2(C)CO)C1C(=O)CC1=CCOC1=O (stereo not given in full)" experimental_result=inactive
compound="C=CC(C)(O)CC/C=C(\\C)C(=O)O[C@@H]1[C@@H](O)[C@H](OC(C)(C=C)CC/C=C(\\C)C(=O)O[C@@H]2O[C@H](CO)[C@@H](O)[C@H](O)[C@H]2O)O[C@H](CO)[C@H]1OC(=O)/C(C)=C/CCC(C)(O)C=C (stereo not given in full)" experimental_result="inactive [at 9.29 µM]"
compound=O=C(O)/C=C/c1ccc2occc2c1O[C@@H]1O[C@H](CO)[C@@H](O)[C@H](O)[C@H]1O experimental_result=inactive

Param item = "Cc1cn(-c2cc(NC(=O)c3ccc(C)c(Nc4nccc(-c5cnccn5)n4)c3)cc(C(F)(F)F)c2)cn1" ; retrieve measured outcome. inactive

Param item = C=C1[C@@H]2CC[C@@]3(C)[C@H](c4ccoc4)OC(=O)C[C@]13O[C@H]1CC(=O)C(C)(C)[C@H](C(O)C(=O)OC)[C@]12C (stereo not given in full) ; retrieve measured outcome. inactive

Param item = CC(C)C1NC(=O)C2CCCN2C1=O (stereo not given) ; retrieve measured outcome. inactive

Param item = COC(=O)c1c(CC=C(C)C)c(OC2OC(CO)C(O)C(O)C2O)c2ccccc2c1OC1OC(CO)C(O)C(O)C1O (stereo not given) ; retrieve measured outcome. inactive

Param item = "O=C(Nc1ccn(Cc2c(F)cccc2C(F)(F)F)n1)c1c(F)cccc1F" ; retrieve measured outcome. inactive [at 9.29 µM]

Param item = "OC[C@H]1O[C@@H](OCc2ccccc2)[C@H](O[C@@H]2OC[C@@H](O)[C@H](O)[C@H]2O)[C@@H](O)[C@@H]1O" ; retrieve measured outcome. inactive

Param item = COC(=O)C1(C)CCCC2(C)c3ccc(C(C)C)cc3C(O)C(O)C12 (stereo not given) ; retrieve measured outcome. inactive

Param item = "O=S(=O)(O)c1ccc(Nc2ncnc3c2ncn3[C@@H]2O[C@H](CO)[C@@H](O)[C@H]2O)cc1" ; retrieve measured outcome. inactive

Param item = "Nc1ncnc2c1ncn2[C@H]1O[C@@H](C(=O)N2CCN(CC(=O)Nc3cccc4c3CNC4=O)CC2)[C@H](O)[C@@H]1O" ; retrieve measured outcome. inactive

Param item = C=C1C(=O)OC[C@H]2C(C(=O)O)=CC3CC(C)(C)C[C@@]132 (stereo not given in full) ; retrieve measured outcome. inactive

The reported numbers originate from PubChem BioAssay (NCATS).
